# measured.on: T1, HLA-B*08:01 (human, biotinylated heavy chain)
# T1 construct: Conditional HLA class I complex as for m1
# assay.remarks: UV peptide exchange; HLA class I ELISA
Rule for this label: 1 (yes) means exchange rate with Pos is less than 5%; 0 (no) means exchange rate with Pos is at least 5%.

Worked set:
| binder | assigned.label |
| --- | --- |
| GVLRRLLCR (Synthetic 9-mer) [P37 9-mer GVLRRLLCR (TSTD1-F11R fusion)] | 1 (yes) |
| NSKMALNSL (Synthetic 9-mer) [P35 9-mer NSKMALNSL (TMPRSS2-ERG fusion)] | 0 (no) |
| IQYSCMGLM (Synthetic 9-mer) [P50 9-mer IQYSCMGLM (AR W742C)] | 1 (yes) |

Qu. Dear colleague, could you confirm whether exchange rate with Pos of FFKRAAEGF (Synthetic 9-mer) [P77 9-mer FFKRAAEGF (AR-V3)] falls below 5%? Thanks.
Ans. 1 (yes)

Qu. Find out if reported exchange rate with Pos for FPVGAEGTF (Synthetic 9-mer) [P27 9-mer FPVGAEGTF (FAM126B-ORC2 fusion)] is less than 5%
Ans. 0 (no)

Qu. Is 5% strictly greater than the binder's reported exchange rate with Pos? binder: STRRAVRRM (Synthetic 9-mer) [P16 9-mer STRRAVRRM (MSMB-NCOA4 fusion)]
Ans. 0 (no)

Qu. Would you kindly verify if exchange rate with Pos of NMVENGCYL (Synthetic 9-mer) [P59 9-mer NMVENGCYL (FOXA1 F254V)] is strictly less than 5%?
Ans. 0 (no)

# credit: patent US20230029453A1
